# testTarget: GSK-3β (Homo sapiens, UniProt P49841)
# Sequence (P49841 whole entry, species assumed): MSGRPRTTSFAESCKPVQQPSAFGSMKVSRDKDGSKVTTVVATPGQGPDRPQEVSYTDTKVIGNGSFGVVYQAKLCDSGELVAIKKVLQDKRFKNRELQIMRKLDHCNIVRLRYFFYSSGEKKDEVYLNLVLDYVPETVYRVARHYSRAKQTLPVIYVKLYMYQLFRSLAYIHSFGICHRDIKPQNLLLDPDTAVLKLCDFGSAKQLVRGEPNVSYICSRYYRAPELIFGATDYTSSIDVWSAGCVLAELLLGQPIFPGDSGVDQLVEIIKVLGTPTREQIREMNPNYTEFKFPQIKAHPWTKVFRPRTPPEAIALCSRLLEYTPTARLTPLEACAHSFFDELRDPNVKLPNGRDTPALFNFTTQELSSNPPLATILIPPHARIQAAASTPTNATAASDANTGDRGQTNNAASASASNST
Field: IC50. Provide a value for each of the compounds that follow.

IC50 for COc1ccc(-c2cc3c(NC(=O)C4CCCCC4)ncnc3o2)cc1 [Example 6] is > 1000 nM

IC50 for COc1ccc(-c2cc3c(NC(=O)C4CCCC4)ncnc3o2)cc1 [Example 3] is 10 to 100 nM

IC50 for O=C(Nc1ncnc2oc(-c3cccnc3)cc12)C1CCCC1 [Example 20] is < 10 nM

IC50 for COc1ccc(-c2cc3c(NC(=O)CCSC)ncnc3o2)cc1 [Example 4] is 100 to 1000 nM
